System: miR-328
test-summary: In vitro inhibition of miR-328 expression by antisense oligonucleotides transfected into ARPE-19 RPE cells (qRT-PCR, normalized to U6)
Type: cell-based, human
condition-parameters: 50 nM, RPE cells (ARPE-19), Lipofectamine 2000 transfection, 24 hours
Procedure: Cell Culture, Treatments, and Transfection An RPE cell line called “ARPE-19” was grown in Dulbecco's modified Eagle's medium (DMEM)/F12 medium. […] Total RNA was extracted from cultured cells using Trizol according to the manufacturer's instructions. […] To measure the miR-328 expression, quantitative real-time PCR was performed on an ABI 7500 real-time PCR machine (Applied Biosystems) with miR-328 specific probe according to manufacturer's instructions (Applied Biosystems). […]
l = locked nucleic acid (LNA); d = 2'-deoxy (DNA)
value-kind: inhibitory effect on miR-328 expression (%)

* 5′-AAGGGCAGAGAGGGCCA-3′ (DNA, backbone not given here) [DNA 17mer, anti-sense miR-328 oligodeoxyribonucleotide] | 41
* 5′-+C*+G*+G*+A*A*G*G*G*C*A*G*A*G*A*G*G*+G*+C*+C*+A-3′ (antisense CGGAAGGGCAGAGAGGGCCA; sugars from the 5' end l4 d12 l4, all phosphorothioate, methylation of C not given here) [LNA403, LNA-modified and PS bond-modified anti-sense miR-328 oligonucleotide, 20 mer] | 97
* 5′-AGGGCAGAGAGGGCCA-3′ (DNA, backbone not given here) [DNA 16mer, anti-sense miR-328 oligodeoxyribonucleotide] | 35
* 5′-+G*+A*+A*+G*G*G*C*A*G*A*G*A*G*G*+G*+C*+C*+A-3′ (antisense GAAGGGCAGAGAGGGCCA; sugars from the 5' end l4 d10 l4, all phosphorothioate, methylation of C not given here) [LNA405, LNA-modified and PS bond-modified anti-sense miR-328 oligonucleotide, 18 mer] | 98
* 5′-+G*+G*+A*+A*G*G*G*C*A*G*A*G*A*G*G*+G*+C*+C*+A-3′ (antisense GGAAGGGCAGAGAGGGCCA; sugars from the 5' end l4 d11 l4, all phosphorothioate, methylation of C not given here) [LNA404, LNA-modified and PS bond-modified anti-sense miR-328 oligonucleotide, 19 mer] | 98

* * *

Test system: miR-328
test-summary: In vitro inhibition of miR-328 expression by antisense oligonucleotides transfected into ARPE-19 RPE cells (qRT-PCR, normalized to U6)
Type: cell-based, human
condition-parameters: 30 nM, RPE cells (ARPE-19), Lipofectamine 2000 transfection, 24 hours
l = locked nucleic acid (LNA); d = 2'-deoxy (DNA)
value-kind: inhibitory effect on miR-328 expression (%)

• 5′-+G*+A*+A*+G*G*G*C*A*G*A*G*A*G*G*+G*+C*+C*+A-3′ (antisense GAAGGGCAGAGAGGGCCA; sugars from the 5' end l4 d10 l4, all phosphorothioate, methylation of C not given here) [LNA405, LNA-modified and PS bond-modified anti-sense miR-328 oligonucleotide, 18 mer] = 98
• 5′-+G*+G*+A*+A*G*G*G*C*A*G*A*G*A*G*G*+G*+C*+C*+A-3′ (antisense GGAAGGGCAGAGAGGGCCA; sugars from the 5' end l4 d11 l4, all phosphorothioate, methylation of C not given here) [LNA404, LNA-modified and PS bond-modified anti-sense miR-328 oligonucleotide, 19 mer] = 98
• 5′-AGGGCAGAGAGGGCCA-3′ (DNA, backbone not given here) [DNA 16mer, anti-sense miR-328 oligodeoxyribonucleotide] = 39
• 5′-AAGGGCAGAGAGGGCCA-3′ (DNA, backbone not given here) [DNA 17mer, anti-sense miR-328 oligodeoxyribonucleotide] = 43
• 5′-+C*+G*+G*+A*A*G*G*G*C*A*G*A*G*A*G*G*+G*+C*+C*+A-3′ (antisense CGGAAGGGCAGAGAGGGCCA; sugars from the 5' end l4 d12 l4, all phosphorothioate, methylation of C not given here) [LNA403, LNA-modified and PS bond-modified anti-sense miR-328 oligonucleotide, 20 mer] = 97
